ASSAY DETAILS: RAM signaling pathway blockade in yeast – S. cerevisiae, Pdr1DBD-CYC8 efflux-inhibited sensitized strain, primary screen (AID 1298);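 note: 0% = DMSO untreated cells without growth and 100% = 10 µM 1-NA-PP1 full growth; higher means more yeast growth rescued from 5-FOA killing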
CONDITION LABEL: S. cerevisiae cbk1-as DSE1-URA3 strain, 5-FOA growth OD615, 2 d; at 50 µM; active compounds read high
MEASURE NAME: RAM network inhibition (%)

MOLECULE	MEASURE NAME	UNIT	NUMBER
COC(=O)c1ccc(-c2nn(C)c(=O)c3ccccc23)cc1	RAM network inhibition	%	-1.8
CCCC(=O)NCCCc1nc2ccccc2n1C(C)C	RAM network inhibition	%	3.95
COc1ccccc1OCC(=O)N1CCN(c2ccccc2OC)CC1	RAM network inhibition	%	-1.28
COc1ccc(S(=O)(=O)N2Cc3ccccc3CC2C(=O)Nc2ccc(O)cc2)cc1OC (configuration not stated)	RAM network inhibition	%	11.6
O=C(O)c1cccc2c1C(=O)N(C1CCCCC1)C2	RAM network inhibition	%	6.19
CC(CC(=O)NC1CCSC1=O)c1ccccc1 (configuration not stated)	RAM network inhibition	%	1.17
COc1ccc(-c2nc(C#N)c(NCCCN3CCOCC3)o2)cc1	RAM network inhibition	%	0.89
O=C(CN1C(=O)c2ccccc2S1(=O)=O)NCc1ccccc1Cl	RAM network inhibition	%	4.41
Cc1ccc(-c2noc(COc3ccccc3C)n2)cc1	RAM network inhibition	%	0
CC(C)Sc1nc2c(c(=O)n1-c1ccc(F)cc1)SCC2	RAM network inhibition	%	7.83
COc1ccccc1NC1C=CS(=O)(=O)C1 (configuration not stated)	RAM network inhibition	%	4.65
CCN1CCN(c2cc(C)c3cc(NC(=O)c4cncc(Br)c4)ccc3n2)CC1	RAM network inhibition	%	-0.98

----------
ASSAY DETAILS: viability of PTEN-null HCT116 cells – cell-based, HCT116 clonal line, CellTiter-Glo, pilot screen (AID 824);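 note: 0% = 20 µM Hyamine control and 100% = vehicle cell control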
CONDITION LABEL: HCT116 PTEN-deleted viability, 60 h, at 10 µM, active compounds read low
Inconclusive results are not listed.

COMPOUND	viability [%]
O=C1N=C(N2CCOCC2)SC1=C1CCCCC1	97.1
Cc1ccc(Oc2ccccc2)c(NC=O)c1	90.4
Cc1ccc2oc(-c3ccc(NC(=O)CC(C)C)cc3)nc2c1	92.6
COc1ccc(OCC(=O)N2CC3(C)CC2CC(C)(C)C3)cc1 (stereo unspecified)	92
CC(Sc1n[nH]c(=O)[nH]c1=O)C(=O)OCc1ccccc1 (stereo unspecified)	98.5
CCCCOC(=O)c1[nH]c2c(c1C)C(=O)CC(c1cc(OC)c(OC)c(OC)c1)C2 (stereo unspecified)	56.6
COCCN1C=C(C(=O)OC)C(c2cc3c(cc2Br)OCO3)C(C(=O)OC)=C1	58.6
O=C(NC1(C(=O)NC2CCCCC2)CCCCC1)c1ccc2c(c1)OCO2	87
O=C(NCc1cccnc1)NC1(C(F)(F)F)Oc2ccc(Cl)cc2O1 (stereo unspecified)	58.7
CCCCNC(=O)c1ccc2c(c1)N(CC)C(=O)c1ccccc1S2(=O)=O	87.3
Cc1ccccc1-c1nnc(-c2ccc(Cl)cc2)o1	64.8

----------
Below, each of the compounds is paired with its reported viability value.
ASSAY DETAILS: HUVEC growth inhibition – cell-based, human, primary screen (AID 575);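 note: 100% = median of untreated cell wells with 0.1% DMSO on each plate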
CONDITION LABEL: HUVEC proliferation, CellTiter-Glo luminescence, 72 h; at 10 µM; active compounds read low

COMPOUND	UNIT	viability
Cc1ccc(-n2ncc3c(N4CCCC(C)C4)ncnc32)c(C)c1 (stereo unspecified)	%	60.2
COc1ccc(-c2nc(C)c(C(C)=O)n2O)cc1OC	%	91
CCOc1ccccc1N(CC(=O)N1CCCCCC1)S(C)(=O)=O	%	97.5
CCn1c(CCNC(=O)c2ccc(OC)c(OC)c2)nc2ccccc21	%	103
Cc1cccc(OCC(=O)N2CCN(C(=O)Cc3ccccc3)CC2)c1	%	107
COc1cccc(-n2c(SCC(=O)N3CCCC3)nc3c([nH]c4ccccc43)c2=O)c1	%	74.5
O=C1c2ccccc2C(Nc2ccc(F)c(Cl)c2)N1Cc1ccco1 (stereo unspecified)	%	58.4
COc1cccc(-c2cc(C(F)(F)F)nc(NCc3ccco3)n2)c1	%	61.6
CCCCSc1nc2c(cnn2-c2ccc(F)cc2)c(=O)[nH]1	%	96.2
CN(Cc1ccccc1)S(=O)(=O)c1ccc(S(=O)(=O)N2CCN(CCC#N)CC2)cc1	%	92.4
O=C1CC(c2ccco2)CC(O)=C1C=NCCN1CCNCC1 (stereo unspecified)	%	103

----------
ASSAY DETAILS: viability of PTEN-null HCT116 cells – cell-based, HCT116 clonal line, CellTiter-Glo, pilot screen (AID 824);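 note: 0% = 20 µM Hyamine control and 100% = vehicle cell control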
CONDITION LABEL: HCT116 PTEN-deleted viability, 60 h, at 10 µM, active compounds read low
Inconclusive results are not listed.
Below, each of the compounds is paired with its reported viability value.
MEASURE NAME: viability (%)

COMPOUND	NUMBER
COc1cc(C2C(C(=O)c3ccco3)=C(O)C(=O)N2Cc2cccnc2)cc(OC)c1OC (configuration not stated)	96.8
FC(F)(F)c1nc(N2CCN(c3ccccc3)CC2)nc2c1CCCCC2	73.4
COc1cc(NC(=O)CN(c2cc(C)cc(C)c2)S(=O)(=O)c2c(C)noc2C)cc(OC)c1	87.5
O=C(O)C1C(c2ccccc2)C(C(=O)OCc2ccco2)C1c1ccccc1 (configuration not stated)	88.3
COc1cc(NC(=O)c2nccnc2C(=O)O)cc(OC)c1	95
CCc1nnc(NC(=O)COC(=O)CN2C(=O)c3ccccc3C2=O)s1	89.8
CCOc1ccc(S(=O)(=O)Nc2ccccc2C(=O)NCC2CCCO2)cc1 (configuration not stated)	95.5
CC1=C(C(=O)Nc2ccccc2)C(c2ccccn2)n2nc(CCCO)nc2N1 (configuration not stated)	92.9
COc1ccc(N2Cc3ccccc3C2)cc1Cl	87.7
CCOC(=O)C1CCN(S(=O)(=O)c2ccc3c4c(cccc24)C(=O)N3)CC1	85.7
O=C(Oc1ccc2ccc(OC(=O)N3CCOCC3)cc2c1)N1CCOCC1	87.7
Oc1ccc(-c2n[nH]c(=S)n2Cc2ccccc2)cc1	91.2
Cc1sc2nc(CSc3nnc(Cc4cccs4)n3C3CCCCC3)[nH]c(=O)c2c1C	90
CC1CCCN(Cc2nc3c(c(=O)n(C)c(=O)n3C)n2CC(=O)c2ccccc2)C1 (configuration not stated)	81.2
Oc1cc(Cc2ccccc2)cnc1CN1CCCCC1	98
Cc1cc(C)cc(N(CC(=O)Nc2cccc(C)n2)S(=O)(=O)c2c(C)noc2C)c1	71.9
CN(CP(=O)(O)C(O)c1ccccc1)S(C)(=O)=O (configuration not stated)	93.4
Nc1c(C(=O)Nc2ccc(Cl)cc2)oc2ccccc12	72.9
Cn1c(NC(=O)c2ccccc2NC(=O)C(C)(C)C)nc2ccccc21	55.1
CCOC(=O)N1CCC(N2CC34C=CC(O3)C(C(=O)Nc3ccc(C)cc3)C4C2=O)CC1 (configuration not stated)	102
CCCOc1ccc(N2C(=O)CC(N3CCC(O)(c4cccc(C(F)(F)F)c4)CC3)C2=O)cc1 (configuration not stated)	103
Cc1ccc(S(=O)(=O)N2CCC(C(=O)N3CCN(Cc4ccccc4)CC3)CC2)cc1	92.6

----------
ASSAY DETAILS: doxorubicin toxicity protection in MRP-1 cells – H69AR cells, CellTiter-Glo, duplicate, MRP-1 activator project, pilot screen (AID 807);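 note: compound pretreatment 18-22 h then 72 h combined with doxorubicin; 0% = doxorubicin alone and 100% = vehicle without doxorubicin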
CONDITION LABEL: H69AR viability with doxorubicin, CellTiter-Glo luminescence; at 10 µM; active compounds read high

MOLECULE	viability increase [%]
COc1ccc(C2C(C(=O)N3CCN(c4ccccc4)CC3)c3ccccc3C(=O)N2C)cc1OC (stereo not given)	-1.19
CCOC(=O)c1cc2c(=O)n3ccccc3nc2n(Cc2ccccc2)c1=N	-3.3
CCN1CCN(c2nc3c(c(=O)[nH]c(=O)n3C)n2CCSc2nc3ccccc3s2)CC1	-1.2
Cc1onc(-c2ccccc2)c1C(=O)NCc1cccnc1	-1.32
COC(=O)C(C#N)C(=C1C(=O)CC(C)(C)CC1=O)c1ccc(O)cc1 (stereo not given)	0.99
COc1ccc(C/C(N)=N/n2cnnc2)cc1Cl	-0.81
Cc1c(C(=O)NC2CC2)oc2ccc(S(=O)(=O)N3CCCCCC3)cc12	3.84
c1ccc2c(c1)ccc1nnc(-c3ccc4c(c3)OCO4)n12	-5.23
CCC(=O)N1c2ccccc2NC2=C(C(=O)CC(c3ccco3)C2)C1c1ccco1 (stereo not given)	-1.65
CSc1cccc(NS(=O)(=O)c2ccccc2)c1	0.44
CC(CCC(=O)Nc1nncs1)C(=O)O (stereo not given)	0.04
Cc1nc2ccccc2c2oc(C(=O)NCCN3CCCCC3C)cc12 (stereo not given)	-2.08
CC1(C(=O)NCc2cccnc2)CCC(=O)N1CCc1ccccc1 (stereo not given)	-0.87
CCc1cc2c(NCCC(=O)O)ncnc2s1	-1.99
COc1cc(OC)c(Cl)cc1N	-2.54
COc1ccc(-c2nc3c(n2O)CCC/C3=N\O)cc1	-4.71
Cn1c(C(=O)NCCCN2CCCCCC2)cc2c(=O)n(C)c3ccccc3c21	-4.55
O=C(O)CCC(=O)Nc1ccc(-c2nnc(-c3ccco3)o2)cc1	-0.63
COc1ccc(S(=O)(=O)NCc2ccc3c(c2)OCO3)cc1C(=O)O	-0.34
Cc1ccc(C)c2[nH]c(=O)c(CCNC(=O)CC(C)(C)C)cc12	1.59
O=C(O)C1C(c2ccccc2)C(C(=O)OCc2ccco2)C1c1ccccc1 (stereo not given)	-3.32
O=C(c1cc2ccccc2oc1=O)N1CCN(c2ccc(N3CCOCC3)nn2)CC1	-1.81
O=C(O)c1ccc(NS(=O)(=O)c2cc(Cl)ccc2Cl)cc1	-2.13
COc1ccc(-c2noc(COc3ccc(Cl)c(C)c3)n2)cc1	0.12
CC(=O)Nc1ccc(S(=O)(=O)N2CCN(CCC#N)CC2)cc1	0.85
COC(=O)CSc1nc2nc(C)cc(C)n2n1	-0.51
Cc1ccc(C(C(=O)NC2CCCCC2)N2CCOCC2)cc1 (stereo not given)	-2
Cc1nnc(SCC(=O)Nc2sc3c(c2C#N)CCCC3)[nH]c1=O	-2.28
COc1ccc(-n2c(Cc3cccn3C)nnc2SCC(=O)Nc2ccc3c(c2)OCCO3)cc1	-1.74
O=S(=O)(c1ccccc1)N1CCN(S(=O)(=O)c2ccccc2)C1	-1.27
CC1CN(S(=O)(=O)c2ccc(C(=O)Nc3nnc(-c4ccc5c(c4)CCCC5)o3)cc2)CC(C)O1 (stereo not given)	-5.17
O=C(Nc1c(C(=O)Nc2ccccc2)cnn1-c1ccccc1)c1ccco1	-4.51
OCCCc1nc2n(n1)C(c1ccccc1)C=C(c1ccccc1)N2 (stereo not given)	-2.67
CCC1CCCCN1CCCNC(=O)CC1Oc2ccc(C)cc2NC1=O (stereo not given)	-3.12
Cc1csc(NC(=O)C(Cc2ccccc2)n2cccc2)n1 (stereo not given)	-5.96
COc1ccc(-c2nc3c(c(SCC(=O)N4CCOCC4)n2)COC(C)(C)C3)cc1	-1.69
COc1ccccc1NC(=O)CSc1nnc(-c2ccco2)n1Cc1ccco1	-3.34
Cc1ccc(CNC(=O)c2cc3c(=O)n(C)c4ccccc4c3n2C)o1	-4.08
Cn1cc(S(=O)(=O)Nc2ccc(F)cc2F)c(=O)n(C)c1=O	0.9
COc1ccc(C2C(C(=O)N3CCCC3)c3cc(OC)c(OC)cc3C(=O)N2C)cc1 (stereo not given)	-1.15
CCOC(=O)/C(C#N)=C(/C)c1ccc(OC)cc1	0.09
COc1ccc(S(=O)(=O)Cc2ccc(C(=O)NCCc3ccc(S(N)(=O)=O)cc3)o2)cc1	0.71
COc1ccc(NC(=O)CSc2nc3c(c(=O)n2-c2ccc(F)cc2)SCC3)cc1	0.22
O=C(CN1CCN(Cc2ccc(F)cc2)C1=O)NCc1cccs1	1.33
CCCN(CC1CC1)S(=O)(=O)c1ccc(S(N)(=O)=O)cc1	-1.41
